Assay: in vivo
Format: in vivo, mice (ddy strain)
Details: mouse, in vivo, ip; read-out: (WBC4000/ED50)* = (WBC4000/ED50)/[(WBC4000/ED50) of MMC1]
Kindly note that classification relies on selectivity ratio with these boundaries: low bin (below 2), mid bin (2 to below 3), high bin (3 or more)

# example entries with known answers
| compound | class assignment |
| --- | --- |
| CC1=C(NCCSSCc2c[nH]c(=O)[nH]c2=O)C(=O)C2=C(C1=O)N1C[C@H]3[C@H](N3C)[C@]1(O)[C@H]2COC(N)=O (stereo partly shown) | high bin |
| CO[C@@]12[C@H](COC(N)=O)C3=C(C(=O)C(C)=C(NCCSSCCNC(=O)CCC(=O)Oc4c(C)c(C)c5c(c4C)CC[C@@](C)(CCC[C@H](C)CCC[C@H](C)CCCC(C)C)O5)C3=O)N1C[C@@H]1N[C@@H]12 | low bin |
| CC1=C(NCCSSCCNC(=O)C(F)(F)F)C(=O)C2=C(C1=O)N1C[C@H]3[C@H](N3C)[C@]1(O)[C@H]2COC(N)=O (stereo partly shown) | high bin |
| CO[C@@]12[C@H](COC(N)=O)C3=C(C(=O)C(C)=C(NCCSSCCC(=O)NC[C@H](O)c4ccc(O)c(O)c4)C3=O)N1C[C@@H]1N[C@@H]12 | mid bin |
| CO[C@@]12[C@H](COC(N)=O)C3=C(C(=O)C(C)=C(NCCSSCCCNC(=O)CC[C@H](N)C(=O)O)C3=O)N1C[C@@H]1N[C@@H]12 | low bin |

q: Band of `CO[C@@]12[C@H](COC(N)=O)C3=C(C(=O)C(C)=C(NCCSSCCNC(=O)CC[C@H](N)C(=O)O)C3=O)N1C[C@@H]1N[C@@H]12` ?
a: high bin

q: # bin label for CC(=O)NCCSSCCNC1=C(C)C(=O)C2=C(C1=O)[C@H](COC(N)=O)[C@@]1(O)[C@@H]3[C@H](CN21)N3C (stereo partly shown)
a: mid bin

q: Tag the class for `CO[C@@]12[C@H](COC(N)=O)C3=C(C(=O)C(C)=C(NCCSSCCC(=O)NCCc4ccc(O)c(O)c4)C3=O)N1C[C@@H]1N[C@@H]12`
a: mid bin

q: Place this compound in its band: `CO[C@@]12[C@H](COC(N)=O)C3=C(C(=O)C(C)=C(NCCSSCCSC(C)=O)C3=O)N1C[C@@H]1N[C@@H]12`
a: low bin

q: Category lookup for the compound CC1=C(NCCSSCC(=O)O[C@H]2CC[C@H]3[C@@H]4CCc5cc(OC(=O)c6ccccc6)ccc5[C@H]4CC[C@]23C)C(=O)C2=C(C1=O)N1C[C@H]3[C@H](N3C)[C@]1(O)[C@H]2COC(N)=O (stereo partly shown)
a: low bin

q: Which selectivity ratio band matches `CO[C@@]12[C@H](COC(N)=O)C3=C(C(=O)C(C)=C(NCCSSCC(=O)O[C@H]4CC[C@H]5[C@@H]6CCc7cc(OC(=O)c8ccccc8)ccc7[C@H]6CC[C@]45C)C3=O)N1C[C@@H]1N[C@@H]12` ?
a: mid bin

q: State the class of the compound shown: CC1=C(NCCSSCCNC(=O)CC[C@@H](N)C(=O)O)C(=O)C2=C(C1=O)N1C[C@H]3[C@H](N3C)[C@]1(O)[C@H]2COC(N)=O (stereo partly shown)
a: low bin

q: GET /class?item= `CO[C@@]12[C@H](COC(N)=O)C3=C(C(=O)C(C)=C(NCCSSCCC(=O)O[C@H]4CC[C@H]5[C@@H]6CCc7cc(OC(=O)c8ccccc8)ccc7[C@H]6CC[C@]45C)C3=O)N1C[C@@H]1N[C@@H]12`
a: mid bin
